# assayed-target: rat serum albumin (rat, UniProt P02770 25-608)
# Sequence (P02770 25-608 limits assumed): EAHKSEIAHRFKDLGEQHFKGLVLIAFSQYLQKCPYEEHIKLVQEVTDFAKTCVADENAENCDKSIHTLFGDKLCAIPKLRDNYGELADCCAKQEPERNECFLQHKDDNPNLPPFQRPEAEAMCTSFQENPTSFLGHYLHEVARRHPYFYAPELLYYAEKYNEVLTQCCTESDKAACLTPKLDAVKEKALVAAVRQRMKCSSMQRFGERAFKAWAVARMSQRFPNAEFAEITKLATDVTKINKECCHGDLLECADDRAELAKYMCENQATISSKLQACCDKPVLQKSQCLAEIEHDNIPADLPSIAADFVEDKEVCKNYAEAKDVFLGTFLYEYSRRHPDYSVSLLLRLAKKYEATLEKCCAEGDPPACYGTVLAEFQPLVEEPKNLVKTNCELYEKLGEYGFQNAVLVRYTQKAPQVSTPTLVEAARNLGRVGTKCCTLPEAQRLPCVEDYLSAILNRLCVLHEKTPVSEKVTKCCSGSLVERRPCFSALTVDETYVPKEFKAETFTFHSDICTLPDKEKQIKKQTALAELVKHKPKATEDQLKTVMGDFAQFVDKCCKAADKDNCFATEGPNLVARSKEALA
# procedure-summary: ProteOn kinetic analysis
readout: koff (s⁻¹)
One number for each entry, in s⁻¹.

SEQ ID NO 129 (VHH, also called T at position 30) VHH: DVQLVESGGGVVQPGGSLRLSCAASGFTFTSFGMSWVRQAPGKGPEWVSSISGSGSDTLYADSVKGRFTISRDNSKNTLYLQMNSLRPEDTATYYCTIGGSLSRSGQGTLVTVSS : 0.21

Dear colleague, could you send me koff for each of the items below? Thanks.
1. SEQ ID NO 10 (VHH, also called R at position 30) VHH: EVQLVESGGGVVQPGGSLRLSCAASGFTFRSFGMSWVRQAPGKGPEWVSSISGSGSDTLYADSVKGRFTISRDNSKNTLYLQMNSLRPEDTALYYCTIGGSLSRSSQGTLVTVSS
2. SEQ ID NO 127 (VHH, also called T at position 30) VHH: DVQLVESGGGVVQPGGSLRLSCAASGFTFTSFGMSWVRQAPGKGPEWVSSISGSGSDTLYADSVKGRFTISRDNSKNTLYLQMNSLRPEDTALYYCTIGGSLSRSGQGTLVTVSS

-- reply
1. 0.13
2. 0.22

-- ask Note down koff recorded for SEQ ID NO 145 (VHH, also called T at position 30) VHH: DVQLVESGGGVVQPGGSLRLSCAASGFTFTSFGMSWVRQAPGKGPEWVSSISGSGSDTLYADSVKGRFTISRDNSKNTLYLQMNSLRPEDTAAYYCTIGGSLSRSGQGTLVTVSS
-- reply 0.23
